# Study Target: T1, beta-catenin, full-length (Uniprot ID P35222) (Homo sapiens (Human), UniProt P35222 2-781)
# T1 construct: tags are not described; also called bCat; B-Catenin
# T1 sequence: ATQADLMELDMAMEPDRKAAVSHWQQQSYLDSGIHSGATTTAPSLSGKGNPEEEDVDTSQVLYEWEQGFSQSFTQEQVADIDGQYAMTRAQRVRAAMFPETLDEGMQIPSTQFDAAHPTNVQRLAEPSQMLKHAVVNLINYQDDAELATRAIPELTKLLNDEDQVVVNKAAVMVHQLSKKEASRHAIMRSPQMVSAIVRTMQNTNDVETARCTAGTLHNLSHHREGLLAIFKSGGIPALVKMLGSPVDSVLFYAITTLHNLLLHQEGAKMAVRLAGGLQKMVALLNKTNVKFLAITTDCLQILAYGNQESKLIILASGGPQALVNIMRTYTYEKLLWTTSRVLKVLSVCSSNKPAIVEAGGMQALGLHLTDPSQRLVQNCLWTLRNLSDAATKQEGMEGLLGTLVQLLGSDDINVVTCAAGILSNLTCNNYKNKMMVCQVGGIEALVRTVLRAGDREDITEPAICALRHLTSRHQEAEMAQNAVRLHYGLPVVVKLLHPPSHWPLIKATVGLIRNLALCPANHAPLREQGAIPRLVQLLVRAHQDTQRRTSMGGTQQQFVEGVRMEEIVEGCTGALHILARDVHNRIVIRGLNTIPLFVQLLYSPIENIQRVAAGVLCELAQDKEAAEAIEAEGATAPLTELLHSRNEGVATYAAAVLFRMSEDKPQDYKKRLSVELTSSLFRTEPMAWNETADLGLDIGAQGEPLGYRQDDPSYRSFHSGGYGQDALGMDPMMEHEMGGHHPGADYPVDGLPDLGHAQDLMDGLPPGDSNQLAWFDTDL
# Method Summary: fluorescence polarization competition, displacement of 5FAM-TCF4 10-53 from full-length beta-catenin
Starred links: 1 amine or outer side, 2 acyl side, 3 side chain; linkers in the order of their positions; H or OH if unused. Positions of bridges follow the written chain, without caps; N, C: chain ends. Non-standard residues stand in square brackets, D forms with d. Primed or numbered codes have the meaning given here. B5(17) = 2,2-bis(4-pentenyl)glycine = 2-amino-2-(pent-4-en-1-yl)hept-6-enoic acid, stitching residue, C=CCCCC(CCCC=C)(N[*:1])C(=O)[*:2]; B5(4) = 2,2-bis(4-pentenyl)glycine = 2-amino-2-(pent-4-en-1-yl)hept-6-enoic acid (stitching residue), C=CCCCC(CCCC=C)(N[*:1])C(=O)[*:2]; Phe(3,4-F2) = N[C@@H](Cc1ccc(F)c(F)c1)C(=O)O; Phe(3-F) = N[C@@H](Cc1cccc(F)c1)C(=O)O; Phe(4-F) = N[C@@H](Cc1ccc(F)cc1)C(=O)O; 1Nal = N[C@@H](Cc1cccc2ccccc12)C(=O)O; αAllylPro = C=CC[C@@]1(C(=O)O)CCCN1; 2Pal = N[C@@H](Cc1ccccn1)C(=O)O; 3Pal = N[C@@H](Cc1cccnc1)C(=O)O; S8 = C=CCCCCCC[C@](C)(N)C(=O)O
Strictly below 4 µM in IC50: 1. Otherwise: -1.

* Ac-[αAllylPro]DA[B5(17)]DDAA[Phe(3,4-F2)]V[S8]FWQ-NH2 (staple 1-4, 4-11, Stapled (stitched) peptide) [I-267: Ac-PL3-Asp-Ala-B5-Asp-Asp-Ala-Ala-34FF-Val-S8-Phe-Trp-Gln-NH2] | -1
* Ac-[αAllylPro]DA[B5(17)]DDAA[Phe(4-F)]V[S8]FWQ-NH2 (staple 1-4, 4-11, Stapled (stitched) peptide) [I-266: Ac-PL3-Asp-Ala-B5-Asp-Asp-Ala-Ala-4FF-Val-S8-Phe-Trp-Gln-NH2] | -1
* XDAXDDAAFVXFWA (not fully specified; N-terminal Ac; PL3 at 1, B5 at 4, S8 at 11 (olefin-metathesis staples 1-4 and 4-11); C-terminal amide, Stapled (stitched) peptide) [I-291: Ac-PL3-Asp-Ala-B5-Asp-Asp-Ala-Ala-Phe-Val-S8-Phe-Trp-Ala-NH2] | 1
* Ac-[αAllylPro]DA[B5(4)]DDAA[Phe(3-F)]V[S8]FWQ-NH2 (staple 1-4, 4-11; also: staple isomer composition, later HPLC peak, Stapled (stitched) peptide) [I-265: Ac-PL3-Asp-Ala-B5-Asp-Asp-Ala-Ala-3FF-Val-S8-Phe-Trp-Gln-NH2] | 1
* Ac-[αAllylPro]DA[B5(4)]DDAAFV[S8][1Nal]WQ-NH2 (staple 1-4, 4-11; also: later-eluting HPLC staple isomer, Stapled (stitched) peptide) [I-276: Ac-PL3-Asp-Ala-B5-Asp-Asp-Ala-Ala-Phe-Val-S8-1NapA-Trp-Gln-NH2] | 1
* XDAXDDAAFVXFW (not fully specified; N-terminal Ac; PL3 at 1, B5 at 4, S8 at 11 (olefin-metathesis staples 1-4 and 4-11); C-terminal amide, Stapled (stitched) peptide) [I-290: Ac-PL3-Asp-Ala-B5-Asp-Asp-Ala-Ala-Phe-Val-S8-Phe-Trp-NH2] | 1
* Ac-[αAllylPro]DA[B5(17)]D[2Pal]AAFV[S8]FWQ-NH2 (staple 1-4, 4-11, Stapled (stitched) peptide) [I-270: Ac-PL3-Asp-Ala-B5-Asp-2PyrA-Ala-Ala-Phe-Val-S8-Phe-Trp-Gln-NH2] | -1
* XDAXDDAAFVXHWQ (not fully specified; N-terminal Ac; PL3 at 1, B5 at 4, S8 at 11 (olefin-metathesis staples 1-4 and 4-11); C-terminal amide, Stapled (stitched) peptide) [I-285: Ac-PL3-Asp-Ala-B5-Asp-Asp-Ala-Ala-Phe-Val-S8-His-Trp-Gln-NH2] | -1
* Ac-[αAllylPro]DA[B5(17)]D[3Pal]AAFV[S8]FWQ-NH2 (staple 1-4, 4-11, Stapled (stitched) peptide) [I-271: Ac-PL3-Asp-Ala-B5-Asp-3PyrA-Ala-Ala-Phe-Val-S8-Phe-Trp-Gln-NH2] | -1
* Ac-[αAllylPro]DA[B5(4)]DDAAFV[S8][1Nal]WQ-NH2 (staple 1-4, 4-11; also: earlier-eluting HPLC staple isomer, Stapled (stitched) peptide) [I-275: Ac-PL3-Asp-Ala-B5-Asp-Asp-Ala-Ala-Phe-Val-S8-1NapA-Trp-Gln-NH2] | -1
* XDAXDDAAFVXFW (not fully specified; N-terminal Ac; PL3 at 1, B5 at 4, S8 at 11 (olefin-metathesis staples 1-4 and 4-11); C-terminal amide, Stapled (stitched) peptide) [I-289: Ac-PL3-Asp-Ala-B5-Asp-Asp-Ala-Ala-Phe-Val-S8-Phe-Trp-NH2] | -1
* XDAXDDAAFAXFWA (not fully specified; N-terminal Ac; PL3 at 1, B5 at 4, S8 at 11 (olefin-metathesis staples 1-4 and 4-11); C-terminal amide, Stapled (stitched) peptide) [I-286: Ac-PL3-Asp-Ala-B5-Asp-Asp-Ala-Ala-Phe-Ala-S8-Phe-Trp-Ala-NH2] | -1
* XDAXDDAAFVXFWA (not fully specified; N-terminal Ac; PL3 at 1, B5 at 4, S8 at 11 (olefin-metathesis staples 1-4 and 4-11); C-terminal amide, Stapled (stitched) peptide) [I-292: Ac-PL3-Asp-Ala-B5-Asp-Asp-Ala-Ala-Phe-Val-S8-Phe-Trp-Ala-NH2] | 1
